Recorded measurements of Kd, one per entry
Target: T1, Amyloid Beta (Aβ) 1-42 (human)
T1 construct: The same peptide was used in several aggregation states: fibrils, a heterogeneous aggregate mixture, and soluble oligomers or aggregates; also called Aβ42; Aβ 42
T1 sequence (peptide, as listed by the source): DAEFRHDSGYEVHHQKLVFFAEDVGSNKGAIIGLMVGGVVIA
Assay: SPR (BIAcore T200), Aβ1-42 fibrils immobilized on CM5, antibody as analyte, global 1:1 fit; apparent KD

h2931 (antibody, V domains shown, Humanized IgG) VH: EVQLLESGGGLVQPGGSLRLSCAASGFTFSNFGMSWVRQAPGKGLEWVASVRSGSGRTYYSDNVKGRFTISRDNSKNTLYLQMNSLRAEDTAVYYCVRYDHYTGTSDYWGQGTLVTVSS VL: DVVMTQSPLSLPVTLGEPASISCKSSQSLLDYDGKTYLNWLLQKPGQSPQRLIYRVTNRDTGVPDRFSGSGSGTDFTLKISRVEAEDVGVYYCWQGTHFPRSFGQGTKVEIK | 0.0612 nM
h2726 (antibody, V domains shown, Humanized IgG, detected with anti-human IgG) VH: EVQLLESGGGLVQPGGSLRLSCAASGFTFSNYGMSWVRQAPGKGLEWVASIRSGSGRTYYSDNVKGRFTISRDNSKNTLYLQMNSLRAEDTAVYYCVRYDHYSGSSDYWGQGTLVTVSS VL: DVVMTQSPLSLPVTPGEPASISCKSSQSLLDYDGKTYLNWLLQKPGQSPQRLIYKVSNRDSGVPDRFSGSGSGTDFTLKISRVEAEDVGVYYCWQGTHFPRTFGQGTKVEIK | 0.054 nM
h2831 (antibody, V domains shown, Humanized IgG) VH: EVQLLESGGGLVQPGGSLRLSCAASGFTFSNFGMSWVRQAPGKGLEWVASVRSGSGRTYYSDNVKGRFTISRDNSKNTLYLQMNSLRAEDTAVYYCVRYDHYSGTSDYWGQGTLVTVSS VL: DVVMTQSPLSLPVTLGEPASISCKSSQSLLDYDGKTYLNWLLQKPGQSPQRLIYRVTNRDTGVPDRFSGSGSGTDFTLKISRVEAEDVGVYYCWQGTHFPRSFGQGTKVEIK | 0.111 nM

Moving on to another binder below.
Prompt: For h2731 (antibody, V domains shown, Humanized IgG) VH: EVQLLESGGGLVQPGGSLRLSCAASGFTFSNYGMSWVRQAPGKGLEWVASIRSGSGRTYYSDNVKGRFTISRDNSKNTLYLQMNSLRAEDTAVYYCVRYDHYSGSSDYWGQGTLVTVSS VL: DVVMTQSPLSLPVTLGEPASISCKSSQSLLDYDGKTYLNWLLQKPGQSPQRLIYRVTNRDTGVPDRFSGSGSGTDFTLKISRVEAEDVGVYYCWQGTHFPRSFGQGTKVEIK , what is its reported Kd?
Completion: 0.0704 nM
